target: ROS1 (Homo sapiens); construct: purchased Carna Biosciences 08-163; assay: ROS1 autophosphorylation inhibitory activity evaluation (ADP-Glo); assay type: biochemical; conditions: 200 nM inactive ROS1, ATP 1 mM, 25° C. 1.5 hours, ADP generated, four separate measurements
Sequence (P08922 28-2347): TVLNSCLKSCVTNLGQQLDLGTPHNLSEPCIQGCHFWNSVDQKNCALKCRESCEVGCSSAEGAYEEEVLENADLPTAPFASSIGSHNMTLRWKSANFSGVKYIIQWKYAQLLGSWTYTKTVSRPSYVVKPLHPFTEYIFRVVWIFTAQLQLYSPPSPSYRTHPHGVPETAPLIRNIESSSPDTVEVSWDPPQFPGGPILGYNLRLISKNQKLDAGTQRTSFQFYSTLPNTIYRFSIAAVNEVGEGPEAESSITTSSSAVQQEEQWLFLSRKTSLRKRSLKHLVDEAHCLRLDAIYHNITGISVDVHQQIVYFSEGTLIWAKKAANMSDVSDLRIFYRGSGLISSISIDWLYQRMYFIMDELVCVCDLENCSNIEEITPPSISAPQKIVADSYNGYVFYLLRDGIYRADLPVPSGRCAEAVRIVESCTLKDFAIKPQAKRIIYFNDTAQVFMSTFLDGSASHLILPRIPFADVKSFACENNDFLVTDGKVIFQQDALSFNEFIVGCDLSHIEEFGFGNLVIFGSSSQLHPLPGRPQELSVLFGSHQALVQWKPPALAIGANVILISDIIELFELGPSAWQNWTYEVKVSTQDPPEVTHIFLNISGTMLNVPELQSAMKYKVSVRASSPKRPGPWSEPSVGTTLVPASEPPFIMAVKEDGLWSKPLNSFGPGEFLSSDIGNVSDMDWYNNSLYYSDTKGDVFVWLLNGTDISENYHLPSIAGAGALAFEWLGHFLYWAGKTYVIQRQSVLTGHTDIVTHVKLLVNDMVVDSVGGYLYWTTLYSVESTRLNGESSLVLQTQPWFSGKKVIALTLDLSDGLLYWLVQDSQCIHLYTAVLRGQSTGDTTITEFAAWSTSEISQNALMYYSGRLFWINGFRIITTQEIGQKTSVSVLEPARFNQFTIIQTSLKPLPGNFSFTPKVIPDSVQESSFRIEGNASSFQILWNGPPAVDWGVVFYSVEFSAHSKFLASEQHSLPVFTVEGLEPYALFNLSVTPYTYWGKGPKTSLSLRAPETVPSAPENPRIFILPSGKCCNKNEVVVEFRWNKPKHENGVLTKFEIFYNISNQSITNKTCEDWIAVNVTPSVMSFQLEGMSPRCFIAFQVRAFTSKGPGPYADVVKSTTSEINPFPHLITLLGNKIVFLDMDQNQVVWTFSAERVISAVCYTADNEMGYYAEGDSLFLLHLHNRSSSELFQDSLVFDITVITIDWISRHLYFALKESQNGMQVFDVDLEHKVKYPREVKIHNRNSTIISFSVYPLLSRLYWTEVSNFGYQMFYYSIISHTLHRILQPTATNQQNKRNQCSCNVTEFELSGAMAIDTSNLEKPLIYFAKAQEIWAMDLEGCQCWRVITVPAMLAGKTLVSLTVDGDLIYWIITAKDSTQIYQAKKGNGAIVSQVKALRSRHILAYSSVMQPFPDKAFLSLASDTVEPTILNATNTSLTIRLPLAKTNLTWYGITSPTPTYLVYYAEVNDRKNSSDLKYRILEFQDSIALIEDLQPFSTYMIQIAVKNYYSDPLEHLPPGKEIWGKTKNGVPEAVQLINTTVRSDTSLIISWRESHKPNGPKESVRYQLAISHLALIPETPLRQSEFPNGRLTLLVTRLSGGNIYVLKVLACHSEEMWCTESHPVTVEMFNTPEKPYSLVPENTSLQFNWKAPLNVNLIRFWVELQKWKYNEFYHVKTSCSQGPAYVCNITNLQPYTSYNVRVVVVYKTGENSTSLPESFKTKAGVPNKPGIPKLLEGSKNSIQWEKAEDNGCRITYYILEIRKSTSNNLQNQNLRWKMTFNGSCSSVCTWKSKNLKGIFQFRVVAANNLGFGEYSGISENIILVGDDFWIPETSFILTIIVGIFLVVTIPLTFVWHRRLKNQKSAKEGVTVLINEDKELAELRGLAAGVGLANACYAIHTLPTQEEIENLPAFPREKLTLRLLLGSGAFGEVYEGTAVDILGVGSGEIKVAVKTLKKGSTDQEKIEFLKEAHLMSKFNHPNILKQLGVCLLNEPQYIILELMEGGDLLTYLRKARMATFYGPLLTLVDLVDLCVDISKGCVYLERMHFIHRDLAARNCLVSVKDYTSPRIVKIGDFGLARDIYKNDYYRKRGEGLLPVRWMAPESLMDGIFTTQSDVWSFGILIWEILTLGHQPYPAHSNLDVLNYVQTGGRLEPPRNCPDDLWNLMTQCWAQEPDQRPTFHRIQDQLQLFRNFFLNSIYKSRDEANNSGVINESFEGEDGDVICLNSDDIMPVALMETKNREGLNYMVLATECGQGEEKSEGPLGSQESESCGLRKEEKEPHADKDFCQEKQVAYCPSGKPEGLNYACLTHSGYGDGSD
Where a name gives a salt, the structure may show the parent alone.
quantityMeasured: IC50

Here's what some known entries look like.
- molecule: "NC1CC(=O)N(c2ccc(-c3cnc4ccc(NCc5ccccc5)nn34)cc2)C1 (centres unmarked)"
  IC50: "< 20 nM"
- molecule: "C[C@@H](Nc1ccc2ncc(-c3cccc(OCCN)c3)n2n1)c1cccc(F)c1"
  IC50: "< 20 nM"
- molecule: "Fc1cccc(COc2ccc3ncc(-c4ccc(OC[C@@H]5CCCN5)cc4)n3n2)c1"
  IC50: "20 to 100 nM"
- molecule: "NCCOc1ccc(-c2cnc3ccc(OCc4cccc(F)c4)nn23)cc1"
  IC50: "20 to 100 nM"
- molecule: "CN[C@H]1CC(=O)N(c2ccc(-c3cnc4ccc(O[C@H](C)c5cccc(F)c5)nn34)cc2)C1"
  IC50: "< 20 nM"

Enquiry: Lookup: IC50 / ROS1 (Homo sapiens) / C[C@@H](Nc1ccc2ncc(-c3ccc(N4C[C@@H](N)CC4=O)cc3)n2n1)c1ccccc1
Return: < 20 nM

Enquiry: Value wanted: IC50 (ROS1 (Homo sapiens)) of entry C[C@@H](Oc1ccc2ncc(-c3ccc(N4C[C@@H](N)CC4=O)cc3)n2n1)c1cccc(F)c1 [Example 133, hydrochloride]
Return: < 20 nM

Enquiry: API: value(readout=IC50, system=ROS1 (Homo sapiens)) for record C[C@@H](Oc1ccc2ncc(-c3ccc(OC[C@@H]4CCN4)cc3)n2n1)c1cccc(F)c1 [Example 18, hydrochloride]
Return: 20 to 100 nM
